# methodNotes: in vivo
# appliedConditions: male, cynomolgus monkey, iv, 1 mg/kg
measuredAttribute: AUC(0-t) (ng·h/mL)

{"compound": "COC[C@@H](NC(=O)C1CCCC(F)(F)C1)C(=O)N[C@H](Cc1ccccc1)C(=O)C(=O)NCc1nccs1 (stereo partly shown) [SY110]", "measuredAttribute": "AUC(0-t)", "value": 501}

###

# Test system: SARS-CoV-1
# methodNotes: microbe, parasite or virus in culture
# Type: cell-based
# appliedConditions: Severe acute respiratory syndrome coronavirus, VeroE6/TMPRSS2, read-out: EC50 (plaque reduction)
pEC50: −log10 of the molar value.
measuredAttribute: pEC50

{"molecule": "CC(C)(C)[C@H](NC(=O)C(F)(F)F)C(=O)N1C[C@H]2[C@@H]([C@H]1C(=O)N[C@H](C#N)C[C@@H]1CCNC1=O)C2(C)C [Nirmatrelvir, reference compound]", "measuredAttribute": "pEC50", "value": 5.12}

###

# methodNotes: in vivo
# appliedConditions: male, beagle, dog, iv, 1 mg/kg
measuredAttribute: Tmax (min)

{"molecule": "COC[C@@H](NC(=O)C1CCCC(F)(F)C1)C(=O)N[C@H](Cc1ccccc1)C(=O)C(=O)NCc1nccs1 (stereo partly shown)", "measuredAttribute": "Tmax", "value": 4.98}

###

# methodNotes: in vivo
# appliedConditions: male, cynomolgus monkey, iv, 1 mg/kg
measuredAttribute: half-life (min)

{"compound": "COC[C@@H](NC(=O)C1CCCC(F)(F)C1)C(=O)N[C@H](Cc1ccccc1)C(=O)C(=O)NCc1nccs1 (stereo partly shown) [SY110]", "value": 43.8}

###

CC50 for assorted compounds
# methodNotes: in vitro
# Type: cell-based
# appliedConditions: human; HUVEC, MTT, 72 h
measuredAttribute: CC50

{"compound": "C[C@@H](NC(=O)C1CCC(F)(F)C1)C(=O)N[C@H](Cc1ccccc1)C(=O)C(=O)NCc1nccs1 (stereo partly drawn) [3t]", "value": "> 500 µM"}
{"compound": "COC[C@@H](NC(=O)C1CCCC(F)(F)C1)C(=O)N[C@H](Cc1ccccc1)C(=O)C(=O)NCc1nccs1 (stereo partly drawn) [SY110]", "value": "> 500 µM"}
{"compound": "COC[C@@H](NC(=O)C1CCC(F)(F)CC1)C(=O)N[C@H](Cc1ccccc1)C(=O)C(=O)NCc1nccs1 [3v]", "value": "129 µM"}
{"compound": "C[C@@H](NC(=O)CC1CC(F)(F)C1)C(=O)N[C@H](Cc1ccccc1)C(=O)C(=O)NCc1nccs1 [3u]", "value": "> 500 µM"}
{"compound": "C[C@@H](NC(=O)C1CCC(F)(F)CC1)C(=O)N[C@H](Cc1ccccc1)C(=O)C(=O)NCc1nccs1 [3r]", "value": "> 500 µM"}
{"compound": "COC[C@@H](NC(=O)CC1CC(F)(F)C1)C(=O)N[C@H](Cc1ccccc1)C(=O)C(=O)NCc1nccs1 [3x]", "value": "> 500 µM"}

###

# targetSystem: CYP2B6 (Homo sapiens, UniProt P20813)
# Sequence (P20813 whole entry): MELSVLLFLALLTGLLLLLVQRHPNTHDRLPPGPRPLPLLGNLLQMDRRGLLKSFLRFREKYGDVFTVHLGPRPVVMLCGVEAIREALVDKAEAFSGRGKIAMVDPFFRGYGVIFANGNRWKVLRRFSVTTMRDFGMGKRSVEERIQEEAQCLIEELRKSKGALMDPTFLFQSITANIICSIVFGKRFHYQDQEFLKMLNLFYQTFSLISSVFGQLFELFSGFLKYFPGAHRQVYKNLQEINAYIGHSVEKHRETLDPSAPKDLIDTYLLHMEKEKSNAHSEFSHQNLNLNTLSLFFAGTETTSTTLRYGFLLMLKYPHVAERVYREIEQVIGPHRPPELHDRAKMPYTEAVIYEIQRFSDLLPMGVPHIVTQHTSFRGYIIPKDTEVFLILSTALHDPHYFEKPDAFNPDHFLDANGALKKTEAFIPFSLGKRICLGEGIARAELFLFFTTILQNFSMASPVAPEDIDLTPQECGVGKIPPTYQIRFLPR
pIC50: −log10 of the molar value.

{"compound": "COC[C@@H](NC(=O)C1CCCC(F)(F)C1)C(=O)N[C@H](Cc1ccccc1)C(=O)C(=O)NCc1nccs1 (stereo partly shown)", "pIC50": "< 4.52"}

Recorded values, source paper PMC10018608.
